target: human GPR120 (Homo sapiens, UniProt Q5NUL3); construct: host or cells: HEK293 cells co-expressing Gqi5; assay: Intracellular Ca2+ assay in human GPR120 stable cell line (HEK293 co-expressing Gqi5), Flexstation; type: cell-based; settings: % activity at 5 μM compared to the maximal activity of GW9508 at 6.7 μM (=100%); human GPR120 cells, Ca2+ fluorescence
PROPERTY: % Activity (GW9508 Reference Compound) (%)

Examples with answers:
CC1(C)Cc2cc(Cl)cc(CNc3ccc(CCC(=O)O)cc3)c2O1 = 152.93
CC(Cc1cc(F)c(OCc2ccc(F)c3c2OC(C)(C)C3)c(F)c1)C(=O)O (centres unmarked) = 109.6
[2H]C([2H])(C(=O)O)C([2H])([2H])c1ccc(OCc2cc(F)cc3c2OC(C)(C)C3)c(F)c1CC = 155.23

[P] Cc1cc(CC(C)C(=O)O)ccc1OCc1cc(Cl)cc2c1OC(C)(C)C2 (centres unmarked)
[Q] Cc1cc2c(OCc3cc(F)cc4c3OC(C)(C)C4)ccc(CCC(=O)O)c2o1
[R] CC1(C)Cc2cc(Cl)cc(COc3ccccc3CCC(=O)O)c2O1
[S] CC(Cc1ccc(OCc2cc(-n3cnnn3)cc3c2OC(C)(C)C3)cc1)C(=O)O (centres unmarked)
[T] CC(Cc1ccc(OCc2cc(Cl)cc3c2OC(C)(C)C3=O)c(C(F)(F)F)c1)C(=O)O (centres unmarked)
# rank_down: sort by % Activity (GW9508 Reference Compound), max first Please list each label once, in the requested order.
P, S, Q, R, T

====

molecular target: human GPR120 (Homo sapiens); construct: host or cells: HEK293 cells co-expressing Gqi5; assay: Intracellular Ca2+ assay in human GPR120 stable cell line (HEK293 co-expressing Gqi5), Flexstation; format: cell-based; settings: % activity at 5 μM compared to the maximal activity of GW9508 at 6.7 μM (=100%); human GPR120 cells, Ca2+ fluorescence
PROPERTY: % Activity (GW9508 Reference Compound) (%)

CC(C)Oc1ncccc1COc1ccc2c(c1)CCC2CC(=O)O (centres unmarked) = 118.5

[1] CC1(C)Cc2c(COc3ccc4c(c3)CCC4CC(=O)O)ccc(F)c2O1 (centres unmarked)
[2] CC(Cc1ccc(OCc2cc(F)cc3c2OC2(CCCC2)C3)cc1)C(=O)O (centres unmarked)
Of the two listed items, which has the higher % Activity (GW9508 Reference Compound)? First: 1 Second: 2 Indicate which entry you chose by stating its label.
2

[P] CC1(C)Cc2cccc(COc3c(F)cc(C4CC4C(=O)O)cc3F)c2O1 (centres unmarked)
[Q] CC(Cc1cc(F)c(OCc2cccc3cn[nH]c23)c(F)c1)C(=O)O (centres unmarked)
[R] CN(C)Cc1cc(OCc2cc(F)cc3c2OC(C)(C)C3)ccc1CCC(=O)O
[S] CC(Cc1ccc(OCc2cc(Cl)cc3c2OC(C)(C)C3)cc1Cl)C(=O)O (centres unmarked)
# rank_down: sort by % Activity (GW9508 Reference Compound), max first Please list each label once, in the requested order.
S, P, Q, R
(S: 163.7%, P: 100.3%, Q: 16.67%, R: 3.58%)

====

Molecular target: human GPR120 (Homo sapiens, UniProt Q5NUL3)
Construct: host or cells: HEK293 cells co-expressing Gqi5
Sequence (Q5NUL3 1-361): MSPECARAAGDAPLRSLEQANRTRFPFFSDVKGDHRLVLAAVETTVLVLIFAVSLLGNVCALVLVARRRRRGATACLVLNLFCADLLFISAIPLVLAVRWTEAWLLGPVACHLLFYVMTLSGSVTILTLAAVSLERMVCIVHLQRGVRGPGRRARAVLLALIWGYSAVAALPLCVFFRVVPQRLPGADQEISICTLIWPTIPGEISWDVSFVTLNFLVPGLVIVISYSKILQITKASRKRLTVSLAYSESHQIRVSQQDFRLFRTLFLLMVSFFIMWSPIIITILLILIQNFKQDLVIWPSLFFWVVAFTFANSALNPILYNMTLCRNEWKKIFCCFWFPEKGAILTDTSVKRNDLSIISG
Assay: Intracellular Ca2+ assay in human GPR120 stable cell line (HEK293 co-expressing Gqi5), Flexstation
Format: cell-based
Settings: % activity at 5 μM compared to the maximal activity of GW9508 at 6.7 μM (=100%); human GPR120 cells, Ca2+ fluorescence
PROPERTY: % Activity (GW9508 Reference Compound) (%)

Examples with answers:
[2H]C1([2H])c2cc(F)cc(COc3ccc(CC(C)C(=O)O)cc3)c2OC1(C)C (centres unmarked) [Example 145] = 143.69
Cc1cc(CC(C)C(=O)O)ccc1OCc1cc(F)cc2c1OC(C)(C)C2 (centres unmarked) [Example 6] = 147.3
[2H]C([2H])(Oc1ccc(CC(C)C(=O)O)cc1C(F)(F)F)c1cc(F)cc2c1OC(C)(C)C2 (centres unmarked) [Example 231] = 101.01
CC1(C)Cc2cc(Cl)cc(COc3ccc(SCC(=O)O)cc3)c2O1 [Example 59] = 117.58
Cc1cc(OCc2cc(F)cc3c2OC(C)(C)C3)ccc1CCC(=O)O [Example 46] = 113.55

[1] CC(Cc1ccc(OCc2cc(Cl)cc3c2OC(C)(C)C3O)c(F)c1)C(=O)O (centres unmarked) [Example 80]
[2] CC1(C)Cc2c(F)ccc(COc3c(F)cc(C4CC4C(=O)O)cc3F)c2O1 (centres unmarked) [Example 27]
// task: argmin of % Activity (GW9508 Reference Compound) over [ 1 , 2 ] Indicate which entry you chose by stating its label.
1

[A] CC1(C)Cc2cc(F)cc(COc3ccc(C4CC4C(=O)O)cc3)c2O1 (single isomer, unassigned) [Example 131B]
[B] CC(C)Oc1cc(OCc2cc(F)cc3c2OC(C)(C)C3)ccc1CCC(=O)O [Example 115]
Of the two listed items, which has the higher % Activity (GW9508 Reference Compound)? First: A Second: B Indicate which entry you chose by stating its label.
B

[A] Cc1c(CCC(=O)O)ccc(OCc2cc(Cl)cc3c2OC(C)(C)C3)c1C [Example 209]
[B] CC(Cc1cccc(OCc2cc(Cl)cc3c2OC(C)(C)C3)c1)C(=O)O (centres unmarked) [Example 251]
Of the two listed items, which has the higher % Activity (GW9508 Reference Compound)? First: A Second: B Indicate which entry you chose by stating its label.
A
(A: 142.22%, B: 61.14%)
